# System: adjuvant arthritis
# ASSAY METHOD TEXT: Rat-Adjuvant Arthritis Test
# Format: in vivo, male Sprague-Dawley rats
# CONDITION NOTES: Rattus norvegicus, po; orally once a day for 5 days (day 15 to 19); lowest dose with significant reduction (p<0.001) of foot volume; read-out: Minimum Effective Dose Adjuvant Arthritis
PROPERTY: minimal effective dose (mg/kg)
All answers are understood in mg/kg, so give the number only.

>>> meas_value("CN(C)c1noc(Cc2cccc(C(=NO)c3ccccc3)c2)n1")
10
>>> meas_value("CC(c1cccc(C(=O)c2ccccc2)c1)c1nc(N)no1 (centres unmarked)")
2.5
>>> meas_value("CNc1nc(C(C)c2ccc(-c3ccccc3)c(F)c2)cs1 (centres unmarked)")
25
>>> meas_value("CC(c1ccc(-c2ccccc2)c(F)c1)c1csc(N(C)C)n1 (centres unmarked)")
10
>>> meas_value("CC(c1cccc(C(=O)c2ccccc2)c1)c1nc(N(C)C)no1 (centres unmarked)")
2.5

For the compound CC(c1ccc(-c2ccccc2)c(F)c1)c1coc(N)n1 (centres unmarked) , what minimal effective dose is on record?
10

Here is the next compound: CC(c1cccc(C(=O)c2ccccc2)c1)c1cc(N)on1 (centres unmarked)
2.5

Here is the next compound: CC(c1ccc(-c2ccccc2)c(F)c1)c1nc(N)no1 (centres unmarked)
2.5

###

# TARGET: 5-lipoxygenase (Cavia porcellus, UniProt A0A286X958)
# Construct: polymorphonuclear leukocytes (PMNs) from Hartley guinea pigs; endogenous in cells; host or cells: casein-elicited peritoneal polymorphonuclear leukocytes of Hartley guinea pigs (intact cells)
# Sequence (A0A286X958 1-674): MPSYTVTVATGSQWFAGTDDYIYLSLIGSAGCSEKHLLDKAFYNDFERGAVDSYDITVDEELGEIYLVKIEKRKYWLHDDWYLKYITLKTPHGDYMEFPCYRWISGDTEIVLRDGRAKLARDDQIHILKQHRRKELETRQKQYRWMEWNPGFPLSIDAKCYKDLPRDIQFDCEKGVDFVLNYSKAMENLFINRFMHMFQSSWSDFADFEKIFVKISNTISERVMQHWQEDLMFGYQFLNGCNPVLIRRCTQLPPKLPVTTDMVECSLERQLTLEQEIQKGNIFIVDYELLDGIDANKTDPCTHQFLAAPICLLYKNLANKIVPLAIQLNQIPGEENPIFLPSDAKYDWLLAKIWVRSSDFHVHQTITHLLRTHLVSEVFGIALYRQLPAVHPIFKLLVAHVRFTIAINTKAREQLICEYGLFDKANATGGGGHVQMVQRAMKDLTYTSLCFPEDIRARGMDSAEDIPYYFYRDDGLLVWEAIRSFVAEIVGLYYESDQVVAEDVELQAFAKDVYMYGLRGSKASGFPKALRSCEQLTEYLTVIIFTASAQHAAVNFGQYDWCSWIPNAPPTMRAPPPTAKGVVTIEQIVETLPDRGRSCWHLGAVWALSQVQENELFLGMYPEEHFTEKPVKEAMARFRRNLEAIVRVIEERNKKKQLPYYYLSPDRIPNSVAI
# ASSAY METHOD TEXT: 5-Lypoxygenase Inhibitory Test
# Assay type: cell-based, Hartley guinea pigs
# CONDITION NOTES: PMNs from guinea pigs, A23187 stimulated, [14C] arachidonic acid; Inhibition (%) classes
PROPERTY: Activity of Inhibition (5-lipoxygenase)

>>> meas_value("CC(c1cccc(C(=O)c2ccccc2)c1)c1nc(N)no1 (stereo not shown)")
"+++ (70%<)"
>>> meas_value("CC(c1cccc(C(=NO)c2ccccc2)c1)c1nc(N)no1 (stereo not shown)")
"+++ (70%<)"
>>> meas_value("CN(C)c1noc(Cc2cccc(C(=NO)c3ccccc3)c2)n1")
"+++ (70%<)"

The measurements presented in this section are drawn from patent US5066666A.
